# viability change per entry
assay: Nrf2 qHTS screen for inhibitors: Validation (AID 493153); settings: A549 ARE-Fluc reporter, 18-24 h; measured here: cytotoxicity max response
Records with an inconclusive call do not appear.
EXPERIMENTAL ENDPOINT: viability change (%)

- CN1CCC(c2c[nH]c3ccc(O)cc23)CC1: -1.47
- Cc1cc([C@@H]2CCCN2C)on1: 4.53
- NC(C(=O)O)c1cc(=O)[nH]o1 (configuration not stated): -7.19
- N=C(N)c1ccc(CS(=O)(=O)F)cc1: -1.04
- N#C/C(=C/c1ccc(O)c(O)c1)C(N)=S: 0.144
- N[C@@H](CCl)C(=O)O: 4.83
- C=CCN1CCC23c4c5ccc(O)c4O[C@H]2C(=O)CC[C@@]3(O)C1C5 (some centres not stated): 2.4
- Oc1ccc2c3c1O[C@H]1c4oc5ccccc5c4C[C@@]4(O)C(C2)N(CC2CC2)CCC314 (some centres not stated): -2.78
- NC(N)=NOCC[C@H](N)C(=O)O: 10.2
- N[C@@H](Cn1oc(=O)[nH]c1=O)C(=O)O: -3.31
- CC(=O)NBr: 1.41
- CC12NC(Cc3ccccc31)c1ccccc12 (configuration not stated): 6.2
- NC(CCCCCP(=O)(O)O)C(=O)O (configuration not stated): 13.6
- NC(=O)CI: 7.18
- CC(N)Cc1c[nH]c2ccc(OCc3cccs3)cc12 (configuration not stated): -4.81
- CCCN(CCC)[C@@H]1CCc2cccc(O)c2C1: -3.45
- COc1ccc2c(c1)C13CCCCC1C(C2)N(C)CC3 (configuration not stated): 4.34

* * *

system: CP286; assay: qHTS profiling for inhibitors of Plasmodium falciparum proliferation (AID 504749); note: nearly all actives have a fitted effect of over 60% in size; settings: P. falciparum in erythrocytes, SYBR Green DNA, 72 h; series mostly up to 28.7 µM
Inconclusive results are not listed. The source made the active and inactive calls. Calls follow the shape of the dose curve; as a rule, active = well fitted inhibition curve with a large enough effect; inconclusive = small, poorly fitted or top-dose-only effect; inactive = flat fitted curve, though single readings scatter.
Possible outcomes: active, inactive

* O=C(O)C(Cl)(Cl)Cl | inactive
* CCC(N)Cc1c[nH]c2ccccc12 (stereo not drawn) | inactive
* F/C(COc1ccc2c(c1)[nH]c1ccccc12)=C1/CN2CCC1CC2 | active

* * *

experiment: qHTS profiling for inhibitors of Plasmodium falciparum proliferation (AID 504749); note: nearly all actives have a fitted effect of over 60% in size;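 for activity, negative = inhibition: 0% = DMSO vehicle and full inhibition = artemisinin control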; settings: P. falciparum in erythrocytes, SYBR Green DNA, 72 h; at 28.7 µM (top of the series); parasite line A
Inconclusive results are not listed.
Let's look at some molecules and their measured activity, negative = inhibition.
EXPERIMENTAL ENDPOINT: activity, negative = inhibition (%)

- CCC1(c2ccccc2)C(=O)NC(=O)N(C(=O)c2ccccc2)C1=O (centres undefined): -16
- CC(N)Cc1ccc(O)cc1 (centres undefined): -0.875
- COc1ccc(OC)c(C(O)C(C)N)c1 (centres undefined): 12.5
- COc1ccc2c3c1O[C@H]1C(=O)CC[C@H]4[C@@H](C2)N(C)CC[C@]314: 0.497

* * *

molecular target: ATPase family AAA domain-containing protein 5 (Homo sapiens) (UniProt Q96QE3); experiment: Validation screen for small molecules that inhibit ELG1-dependent DNA repair in human embryonic kidney (HEK293T) cells expressing luciferase-tagged ELG1 (AID 493107); settings: HEK293T ELG1-luciferase level, luminescence, 5-fluorouridine co-treatment, 16 h; series mostly up to 46.1 µM; note: nearly all actives have a fitted effect of over 70% in size
Sequence (Q96QE3 whole entry, looked up, the tested form may be a part): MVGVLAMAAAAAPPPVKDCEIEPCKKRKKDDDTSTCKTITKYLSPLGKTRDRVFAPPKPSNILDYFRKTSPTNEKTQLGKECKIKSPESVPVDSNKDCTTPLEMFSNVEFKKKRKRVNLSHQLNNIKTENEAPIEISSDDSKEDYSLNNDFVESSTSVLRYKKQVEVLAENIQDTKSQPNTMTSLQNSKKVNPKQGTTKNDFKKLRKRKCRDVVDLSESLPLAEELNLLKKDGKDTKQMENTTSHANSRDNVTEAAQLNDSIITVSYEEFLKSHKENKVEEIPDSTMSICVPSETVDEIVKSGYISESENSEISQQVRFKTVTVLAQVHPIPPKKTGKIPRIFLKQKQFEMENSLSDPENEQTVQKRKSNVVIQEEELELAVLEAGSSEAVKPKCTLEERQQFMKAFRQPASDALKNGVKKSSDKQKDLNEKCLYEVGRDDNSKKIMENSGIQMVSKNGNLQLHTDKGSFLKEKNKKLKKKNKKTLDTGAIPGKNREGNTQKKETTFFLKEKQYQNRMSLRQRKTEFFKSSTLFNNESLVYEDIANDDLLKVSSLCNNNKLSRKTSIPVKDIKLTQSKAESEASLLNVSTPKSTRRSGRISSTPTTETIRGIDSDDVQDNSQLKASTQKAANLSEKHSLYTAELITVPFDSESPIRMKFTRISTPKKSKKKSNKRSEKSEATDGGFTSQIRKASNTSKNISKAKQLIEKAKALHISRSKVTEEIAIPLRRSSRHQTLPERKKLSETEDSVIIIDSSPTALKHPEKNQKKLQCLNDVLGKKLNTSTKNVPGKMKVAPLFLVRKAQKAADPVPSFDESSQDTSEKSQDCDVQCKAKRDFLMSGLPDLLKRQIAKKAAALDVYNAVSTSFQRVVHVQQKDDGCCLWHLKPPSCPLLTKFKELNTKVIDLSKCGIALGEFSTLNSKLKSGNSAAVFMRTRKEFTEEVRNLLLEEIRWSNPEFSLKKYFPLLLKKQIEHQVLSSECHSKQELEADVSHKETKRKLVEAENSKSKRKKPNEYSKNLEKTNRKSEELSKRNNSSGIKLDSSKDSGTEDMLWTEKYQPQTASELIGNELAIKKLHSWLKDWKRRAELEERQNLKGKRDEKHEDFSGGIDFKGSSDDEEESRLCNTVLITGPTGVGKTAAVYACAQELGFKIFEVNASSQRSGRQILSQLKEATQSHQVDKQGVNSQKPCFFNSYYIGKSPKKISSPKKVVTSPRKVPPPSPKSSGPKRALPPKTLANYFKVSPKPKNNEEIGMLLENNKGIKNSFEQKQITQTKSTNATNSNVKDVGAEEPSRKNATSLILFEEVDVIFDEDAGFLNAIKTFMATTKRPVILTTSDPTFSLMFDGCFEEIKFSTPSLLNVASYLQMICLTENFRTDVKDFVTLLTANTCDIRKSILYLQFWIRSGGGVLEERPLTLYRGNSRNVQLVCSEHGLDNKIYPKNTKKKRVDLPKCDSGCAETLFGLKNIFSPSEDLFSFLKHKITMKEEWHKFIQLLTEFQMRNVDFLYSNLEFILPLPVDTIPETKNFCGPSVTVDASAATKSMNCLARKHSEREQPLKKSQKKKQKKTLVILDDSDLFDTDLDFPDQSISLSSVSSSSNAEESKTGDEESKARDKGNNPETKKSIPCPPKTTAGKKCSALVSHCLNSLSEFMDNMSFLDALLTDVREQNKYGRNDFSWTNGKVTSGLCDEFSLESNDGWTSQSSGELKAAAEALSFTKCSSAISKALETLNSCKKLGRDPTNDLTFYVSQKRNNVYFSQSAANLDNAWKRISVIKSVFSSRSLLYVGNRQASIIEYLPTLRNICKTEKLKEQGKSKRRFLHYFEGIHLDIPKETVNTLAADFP
Results filed as inconclusive are left out. The source made the active and inactive calls. Calls come from the whole dose curve; as a rule, active = well fitted inhibition curve with a large enough effect; inconclusive = small, poorly fitted or top-dose-only effect, or effect the other way; inactive = flat fitted curve, though single readings scatter.
Outcome codes: yes (1) (active), no (0) (inactive)

* Clc1cc(I)cc(Cl)c1NC1=NCCN1 | no (0)
* CCCn1c(=O)c2[nH]c(C3CCCC3)nc2n(CCCOC(=O)c2ccc(S(=O)(=O)F)cc2)c1=O | no (0)
* Cc1[nH]c2ccc(O)cc2c1CCN | no (0)
* CC12NC(Cc3ccccc31)c1ccccc12 (stereo not given) | no (0)
* CCN(CCCl)Cc1ccccc1Br | no (0)
* C[N+](C)(C)CCOC(=O)CBr | no (0)
* C=CCN(C1=NCCN1)c1c(Cl)cccc1Cl | no (0)
* CCCN(CCC)[C@@H]1CCc2cccc(O)c2C1 | no (0)
* CCCN(CCC)CCc1ccc(O)c(O)c1 | no (0)
* CCOC(=O)c1ncn2c1[C@@H]1CCCN1C(=O)c1cc(OC)ccc1-2 | no (0)
* C=CCN1CC[C@]23c4c5ccc(O)c4O[C@H]2/C(=N/NC(=O)c2ccccc2)CC[C@@]3(O)[C@H]1C5 | no (0)
* OCc1cnc[nH]1 | no (0)
* COc1ccc(OC)c(C(O)C(C)N)c1 (stereo not given) | no (0)
* C[N+]1(C)CCN(c2ccccc2)CC1 | no (0)
* NC(Cc1ccc(N(CCCl)CCCl)cc1)C(=O)O (stereo not given) | no (0)
* CC(C)NP(=O)(NC(C)C)OP(=O)(NC(C)C)NC(C)C | no (0)
* c1ccc2cc(CC3=NCCN3)ccc2c1 | no (0)
* CN1CC[C@@]2(C)c3cc(OC(=O)Nc4ccccc4)ccc3N(C)[C@@H]12 | no (0)
* NC(=O)CI | no (0)
* COc1ccc2c(c1)c(CCN1CCOCC1)c(C)n2C(=O)c1cccc(Cl)c1Cl | yes (1)
* CC(C)(C)c1cc(C=C(C#N)C#N)cc(C(C)(C)C)c1O | yes (1)
* CC(N)Cc1c[nH]c2ccc(O)cc12 (stereo not given) | no (0)
* C[C@]12Cc3cn4c(nc3C=C1CCC1C2CC[C@@]2(C)[C@H]1CC[C@@]2(O)C#N)nc1ccccc14 (stereo not given in full) | yes (1)
* CCCCCCC(C)(C)c1ccc([C@@H]2C[C@H](O)CC[C@H]2CCCO)c(O)c1 | yes (1)
* C=CCN1C[C@@H](C)N([C@H](c2ccc(C(=O)N(CC)CC)cc2)c2cccc(OC)c2)C[C@@H]1C | no (0)
* N#C/C(=C/c1ccc(O)c(O)c1)C(N)=S | no (0)
* NC(Cc1cc(O)c(O)cc1O)C(=O)O (stereo not given) | no (0)
* NNC(=O)c1ccc(O)cc1 | no (0)
* CN1C2CCC1CC(OC(c1ccccc1)c1ccccc1N)C2 (stereo not given) | no (0)
* CN(N=O)c1ccc(O)c(O)c1 | no (0)
* Nc1ccc(CCN2CCN(c3cccc(C(F)(F)F)c3)CC2)cc1 | no (0)
* Cc1o[nH]c(=O)c1CC(N)C(=O)O (stereo not given) | no (0)
* O=C1C=CC(=O)C=C1 | no (0)
* C[C@@H]1O[C@@H](O[C@H]2C[C@@H](O)[C@]3(CO)[C@@H]4C(CC[C@]3(O)C2)[C@@]2(O)CC[C@H]([C@@H]3COC(=O)C3)[C@@]2(C)C[C@H]4O)[C@H](O)[C@H](O)[C@H]1O (stereo not given in full) | yes (1)
* O=C1CC[C@@]2(O)C3Cc4ccc(O)c5c4C2(CCN3CC2CC2)[C@H]1O5 (stereo not given in full) | no (0)
* CCN1C[C@@]2(COC)C3[C@@H](OC)C4[C@@H]1C3([C@@H]1C[C@]3(O)[C@H](OC(=O)c5ccccc5)[C@@H]1[C@]4(OC(C)=O)[C@@H](O)[C@@H]3OC)[C@H](OC)C[C@H]2O | no (0)
* COc1ccc2[nH]cc(CCN)c2c1 | no (0)
* COC(=O)N1CCN(C(=O)Cc2ccc(Cl)c(Cl)c2)C(CN2CCCC2)C1 (stereo not given) | no (0)
* COc1ccc(CNC(=O)/C=C/c2ccc3[nH]cc(CCN(C)C)c3c2)cc1 | no (0)
* N[C@@H](Cn1ccc(=O)[nH]c1=O)C(=O)O | no (0)
